- studySystem: Cin5 (UniProt P40917)
- Sequence: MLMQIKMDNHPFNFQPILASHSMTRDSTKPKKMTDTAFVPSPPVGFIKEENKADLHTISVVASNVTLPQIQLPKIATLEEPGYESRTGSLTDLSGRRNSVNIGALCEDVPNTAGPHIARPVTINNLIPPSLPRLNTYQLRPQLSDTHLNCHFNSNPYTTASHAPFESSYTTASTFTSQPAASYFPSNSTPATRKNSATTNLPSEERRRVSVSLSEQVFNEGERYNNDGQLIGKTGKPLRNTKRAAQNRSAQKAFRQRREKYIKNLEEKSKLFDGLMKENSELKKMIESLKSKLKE
- testDetails: PBM E-score (8-mer binding enrichment) (E-score (-0.5 to 0.5)); higher = stronger / more preferred TF binding
- conditionDetails: protein concentration: 100 nM; construct: GST-full length
Whole data set: some 33,000 sequences, median “E-score (-0.5 to 0.5)” near -0.0059, cut for the highest 2% near 0.26. Only a selection was taken, and the highest values are over-represented in it overall.
Measured PBM E-score of individual entries
# print the numeric value only

// known answers, use as guide
seqString | assayValue
AGCTTATG | 0.296
AGCTTATC | 0.204
CAATGAAA | 0.0978
ATTACATG | 0.297
ACATTCGA | 0.0628
CGACGTAC | -0.00505

// recorded PBM E-score for AATAATCC : 0.0532

The recorded PBM E-score for entry CCGGTTTC equals 0.0044

GET /value?item= AATCTAAT &field=PBM E-score returns 0.0853
